Replicate_1 (LOPAC screen with protease) by entry:
assayed_target: SARS-CoV-2 3CLpro (Severe acute respiratory syndrome coronavirus 2)
protocol: biochemical
Format: biochemical
reported_conditions: sheet LOPAC_screen_w_protease; primary screen at 5 µM; replicate 1
// keep it numeric: no unit symbol after the value

Check out these entries, answers already filled in.
Q) Would you kindly share the measured Replicate_1 (LOPAC screen with protease) for O=C1C(SCCO)=C(SCCO)C(=O)c2ccccc21 [NSC 95397, reference compound] ?
A) 20.9168

Q) Would you kindly share the measured Replicate_1 (LOPAC screen with protease) for CCCn1c(=O)c2[nH]c(C3CCCC3)nc2n(CCCOC(=O)c2ccc(S(=O)(=O)F)cc2)c1=O ?
A) 8.115

Q) Would you kindly share the measured Replicate_1 (LOPAC screen with protease) for Br.C=CCN1CCc2cccc3c2[C@H]1Cc1ccc(O)c(O)c1-3 [R(-)-N-Allylnorapomorphine hydrobromide] ?
A) 99.2109

Q) Would you kindly share the measured Replicate_1 (LOPAC screen with protease) for COc1ccc2c(c1)CC[C@@H]1[C@@H]2CC[C@]2(C)[C@@H](NCCCCCCN3C(=O)C=CC3=O)CC[C@@H]12 [U-73122, reference compound] ?
A) 89.4118

Q) Would you kindly share the measured Replicate_1 (LOPAC screen with protease) for CC(C)(C)c1ccc(S(=O)(=O)/C=C/C#N)cc1 [Bay 11-7085, reference compound] ?
A) 92.052

Further cases:
Q) Would you kindly share the measured Replicate_1 (LOPAC screen with protease) for CC(N)C(O)c1ccc(O)c(O)c1 (single isomer, unassigned; (-)) [(-)-alpha-Methylnorepinephrine] ?
A) 8.881

Q) Would you kindly share the measured Replicate_1 (LOPAC screen with protease) for O=Nc1ccc2oc(=O)ccc2c1 [6-Nitroso-1,2-benzopyrone, reference compound] ?
A) 92.4944

* * *

assayed_target: SARS-CoV-2 3CLpro (Severe acute respiratory syndrome coronavirus 2, UniProt P0DTD1)
protocol: biochemical
Type: biochemical
reported_conditions: 4 h, sheet LOPAC_screen_w_protease; primary screen at 5 µM; replicate 2; read-out: Replicate_2 (LOPAC screen with protease)
Where a name gives a salt, the structure may show the parent alone.
Label scheme for inhibition at 5 µM: lower than 10% is no (0), 10% and above is yes (1).

See these solved cases before continuing.
Q) Kindly determine if inhibition at 5 µM recorded for CCOC(=O)c1cnc2c(cnn2CC)c1NN=C(C)C [Etazolate hydrochloride] is above or exactly 10%.
A) no (0)

Q) Kindly determine if inhibition at 5 µM recorded for CCOC(=O)Nc1ccc(NCc2ccc(F)cc2)nc1N [Flupirtine maleate] is above or exactly 10%.
A) yes (1)

Q) Kindly determine if inhibition at 5 µM recorded for Cn1cc(C2=C(c3ccc(Cl)cc3Cl)C(=O)NC2=O)c2ccccc21 is above or exactly 10%.
A) no (0)

Q) Kindly determine if inhibition at 5 µM recorded for CC[N+](CC)(CC)CCOc1ccc(/C=C/c2ccccc2)cc1 is above or exactly 10%.
A) yes (1)

Further cases:
Q) Kindly determine if inhibition at 5 µM recorded for COc1ccc(C(=O)N2CCCC2=O)cc1 is above or exactly 10%.
A) no (0)

Q) Kindly determine if inhibition at 5 µM recorded for COc1ccc2c(c[n+](C)c3c4cc5c(cc4ccc23)OCO5)c1OC [Chelerythrine chloride] is above or exactly 10%.
A) yes (1)

Q) Kindly determine if inhibition at 5 µM recorded for O=c1oc(Cl)c(Cl)c2ccccc12 [3,4-Dichloroisocoumarin, reference compound] is above or exactly 10%.
A) yes (1)

Q) Kindly determine if inhibition at 5 µM recorded for CC[N+](CC)(CC)CCOc1cccc(OCC[N+](CC)(CC)CC)c1OCC[N+](CC)(CC)CC [Gallamine triethiodide] is above or exactly 10%.
A) yes (1)

Q) Kindly determine if inhibition at 5 µM recorded for COC(=O)C1=C(C)NC(C)=C(C(=O)OC)C1c1ccccc1[N+](=O)[O-] is above or exactly 10%.
A) yes (1)

Q) Kindly determine if inhibition at 5 µM recorded for O=C(/C=C/c1ccc(O)c(O)c1)OCCc1ccccc1 [Caffeic acid phenethyl ester, reference compound] is above or exactly 10%.
A) yes (1)

Q) Kindly determine if inhibition at 5 µM recorded for Clc1ccc(C(c2ccc(Cl)cc2)n2cc[n+](CC(OCc3ccc(Cl)cc3Cl)c3ccc(Cl)cc3Cl)c2)cc1 (centres unmarked) [Calmidazolium chloride] is above or exactly 10%.
A) yes (1)

* * *

assayed_target: SARS-CoV-2 3CLpro (Severe acute respiratory syndrome coronavirus 2, UniProt P0DTD1)
protocol: biochemical
Format: biochemical
reported_conditions: 4 h, sheet LOPAC_screen_w_protease; primary screen at 5 µM; replicate 1; read-out: Replicate_1 (LOPAC screen with protease)
Where a name gives a salt, the structure may show the parent alone.
Label scheme for inhibition at 5 µM: lower than 10% is class 0, 10% and above is class 1.

See these solved cases before continuing.
Q) Kindly determine if inhibition at 5 µM recorded for CN(N=O)c1cc(O)ccc1O [Dephostatin, reference compound] is above or exactly 10%.
A) class 1

Q) Kindly determine if inhibition at 5 µM recorded for Oc1cc(O)cc(/C=C/c2ccc(O)c(O)c2)c1 [Piceatannol, reference compound] is above or exactly 10%.
A) class 1

Q) Kindly determine if inhibition at 5 µM recorded for CCOC(=O)Nc1ccc(NCc2ccc(F)cc2)nc1N [Flupirtine maleate] is above or exactly 10%.
A) class 1

Q) Kindly determine if inhibition at 5 µM recorded for N[C@@H](Cc1c[nH]c2ccc(O)cc12)C(=O)O [5-Hydroxy-L-tryptophan] is above or exactly 10%.
A) class 1

Q) Kindly determine if inhibition at 5 µM recorded for O=c1oc(Cl)c(Cl)c2ccccc12 [3,4-Dichloroisocoumarin, reference compound] is above or exactly 10%.
A) class 1

Now, please, on to the next compound.
Q) Kindly determine if inhibition at 5 µM recorded for COC(=O)C1=C(C)NC(C)=C(C(=O)OC)C1c1ccccc1[N+](=O)[O-] is above or exactly 10%.
A) class 1

* * *

mean (LOPAC_screen_w_protease) by entry:
assayed_target: SARS-CoV-2 3CLpro (Severe acute respiratory syndrome coronavirus 2, UniProt P0DTD1)
protocol: biochemical
Type: biochemical
Set-up: unit not given here
reported_conditions: LOPAC1280 primary screen with protease, 5 µM compound, mean of two replicates
Counter-ions that a name gives are not always drawn.
// keep it numeric: no unit symbol after the value

Q) Give mean (LOPAC_screen_w_protease) (SARS-CoV-2 3CLpro (Severe acute respiratory syndrome coronavirus 2, UniProt P0DTD1)) of the following compound: CC[C@H](NC(=O)c1c(C)c(-c2ccccc2)nc2ccccc12)c1ccccc1
A) 1.495

Q) Give mean (LOPAC_screen_w_protease) (SARS-CoV-2 3CLpro (Severe acute respiratory syndrome coronavirus 2, UniProt P0DTD1)) of the following compound: Br.Br.N=C(N)SCCc1cccc(CCSC(=N)N)c1 [1,3-PBIT dihydrobromide]
A) 1.415

Q) Give mean (LOPAC_screen_w_protease) (SARS-CoV-2 3CLpro (Severe acute respiratory syndrome coronavirus 2, UniProt P0DTD1)) of the following compound: CC(=O)Oc1ccccc1C(=O)O
A) 1.637

Q) Give mean (LOPAC_screen_w_protease) (SARS-CoV-2 3CLpro (Severe acute respiratory syndrome coronavirus 2, UniProt P0DTD1)) of the following compound: CC(C)[C@@H]1NC(=O)[C@H](CCCCN)NC(=O)[C@@H](Cc2c[nH]c3ccccc23)NC(=O)[C@H](Cc2ccc(O)cc2)NC(=O)[C@H](C)N(C)C(=O)[C@H](Cc2ccccc2)NC1=O [Seglitide]
A) 1.643

Q) Give mean (LOPAC_screen_w_protease) (SARS-CoV-2 3CLpro (Severe acute respiratory syndrome coronavirus 2, UniProt P0DTD1)) of the following compound: COC(=O)C1=CCCN(C)C1 [Arecoline hydrobromide]
A) 1.398

Q) Give mean (LOPAC_screen_w_protease) (SARS-CoV-2 3CLpro (Severe acute respiratory syndrome coronavirus 2, UniProt P0DTD1)) of the following compound: CN1CC[C@]2(CCN3CCc4c(oc5ccccc45)[C@@H]3C2)N(C)C1=O
A) 1.637

Q) Give mean (LOPAC_screen_w_protease) (SARS-CoV-2 3CLpro (Severe acute respiratory syndrome coronavirus 2, UniProt P0DTD1)) of the following compound: OC[C@H]1O[C@@H](n2cnc3c(NC4CCCCC4)ncnc32)[C@H](O)[C@@H]1O
A) 1.471

* * *

assayed_target: SARS-CoV-2 3CLpro (Severe acute respiratory syndrome coronavirus 2, UniProt P0DTD1)
protocol: biochemical
Type: biochemical
Set-up: unit not given here
reported_conditions: LOPAC1280 primary screen with protease, 5 µM compound, mean of the two replicates
Counter-ions that a name gives are not always drawn.
# strict inequality: mean (LOPAC_screen_w_protease) < 2 yields satisfied, everything else yields not satisfied

Q) Please indicate whether the reported mean (LOPAC_screen_w_protease) of O=C(O)[C@H]1C[C@H](C(=O)O)N1 (relative stereo) [trans-Azetidine-2,4-dicarboxylic acid] is strictly below 2.
A) not satisfied

Q) Please indicate whether the reported mean (LOPAC_screen_w_protease) of CCc1c(C(=O)OC)ncc2[nH]c3cc(OC)c(OC)cc3c12 is strictly below 2.
A) not satisfied

Q) Please indicate whether the reported mean (LOPAC_screen_w_protease) of CCCCOc1cc(CC2CNC(=O)N2)ccc1OC (stereo not shown) [Ro 20-1724] is strictly below 2.
A) satisfied

Q) Please indicate whether the reported mean (LOPAC_screen_w_protease) of OC(CN1CCN(c2cccc(Cl)c2)CC1)C(c1ccccc1)c1ccccc1 (stereo not shown) [BRL 15572] is strictly below 2.
A) satisfied

Q) Please indicate whether the reported mean (LOPAC_screen_w_protease) of O=C1NC(=O)C(c2ccccc2)(c2ccccc2)N1 [Phenytoin sodium] is strictly below 2.
A) satisfied

Further cases:
Q) Please indicate whether the reported mean (LOPAC_screen_w_protease) of Cc1ccc(OCC(O)C(C)NC(C)C)c2c1CCC2.Cl (stereo not shown) [ICI 118,551 hydrochloride] is strictly below 2.
A) satisfied

Q) Please indicate whether the reported mean (LOPAC_screen_w_protease) of CN1CCC(=C2c3ccccc3C=Cc3ccccc32)CC1 [Cyproheptadine hydrochloride] is strictly below 2.
A) not satisfied

Q) Please indicate whether the reported mean (LOPAC_screen_w_protease) of COc1cc(-c2ccc(=O)[nH]n2)ccc1OC(F)F [Zardaverine] is strictly below 2.
A) satisfied

Q) Please indicate whether the reported mean (LOPAC_screen_w_protease) of Cl.NC1C=CC=C(C(=O)O)C1 (stereo not shown) [Gabaculine hydrochloride] is strictly below 2.
A) not satisfied
